Tested on: PC3 tumor xenografts
assay-notes: PC3 human prostate tumor xenograft (Example 58)
Type: in vivo, nude NCRNU mice
test-settings: 5.0 mg/kg i.p. daily; 3 weeks; T7 vehicle 5.626 ± 0.38, T8 vehicle 6.278 ± 1.483
Listing: Final Tumor Weight (V/Vo) ± SEM of selected sequences
Respond using a number only.

**Query** Final Tumor Weight (V/Vo) ± SEM lookup needed for ANMSRNVFFDCTSFPVCQKFLNDTRNY (Scrambled peptide SP1) [reference compound] , thanks.
**Result** 4.284

**Query** Another sequence to check: TMPFLFCNVNDVCNFASRNDYSYWL [T7]
**Result** 1.868

**Query** Another sequence to check: TFNCVKNYQRLDFTSRFVMDSCANFPN (Scrambled peptide SP2) [reference compound]
**Result** 5.097

**Query** Another sequence to check: KLFCNVNCVCNFASRNDYS (TP3 (amino acids 76-94 of SEQ ID NO10; lysine has been substituted for the phenylalanine residue at position 76 of the full-length Tumstatin molecule, and cysteine has been substituted for the aspartic acid at position 83))
**Result** 2.940

The record that follows has no Final Tumor Weight (V/Vo) ± SEM shown yet.
**Query** Final Tumor Weight (V/Vo) ± SEM lookup needed for KQRFTTMPFLFCNVNDVCNFASRNDYS [T8] , thanks.
**Result** 3.455
